Attribute: In vitro activity relative to native peptide (%), vs. GIP (cAMP EC50)
- Target or system: T1, human GIP receptor (human, UniProt P48546 22-466)
- T1 sequence (looked up): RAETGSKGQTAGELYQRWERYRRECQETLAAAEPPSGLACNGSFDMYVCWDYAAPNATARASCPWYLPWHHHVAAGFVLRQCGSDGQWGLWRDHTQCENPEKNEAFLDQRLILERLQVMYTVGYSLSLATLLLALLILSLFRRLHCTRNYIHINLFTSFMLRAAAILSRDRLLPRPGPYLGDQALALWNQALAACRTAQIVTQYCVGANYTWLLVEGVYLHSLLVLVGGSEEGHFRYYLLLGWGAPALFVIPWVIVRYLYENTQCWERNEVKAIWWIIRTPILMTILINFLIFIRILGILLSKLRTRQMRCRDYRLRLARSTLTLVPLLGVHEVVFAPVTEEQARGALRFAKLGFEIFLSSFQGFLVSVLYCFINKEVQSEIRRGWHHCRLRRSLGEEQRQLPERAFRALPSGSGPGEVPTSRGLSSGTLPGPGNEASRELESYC
- Protocol: cell-based or functional assay
Positions of bridges follow the written chain, without caps; N, C: chain ends. Non-standard residues stand in square brackets, D forms with d. No end group written: not given here. *: point of attachment. Acetyl(2-(4-imidazolyl)) = O=C(Cc1c[nH]cn1)*; Aib = CC(C)(N)C(=O)O

Below are worked cases with known answers.
{Acetyl(2-(4-imidazolyl))}-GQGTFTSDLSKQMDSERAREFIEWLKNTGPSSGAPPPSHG [trigonal agonist of SEQ ID NO: 18]: < 0.1%
{Acetyl(2-(4-imidazolyl))}-[Aib]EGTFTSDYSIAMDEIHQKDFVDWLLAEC (bridge 15-19) [trigonal agonist of SEQ ID NO: 84]: < 0.1%
Y[Aib]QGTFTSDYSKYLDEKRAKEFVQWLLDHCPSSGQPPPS (bridge 16-20) [trigonal agonist of SEQ ID NO: 96]: 5.2%
{Acetyl(2-(4-imidazolyl))}-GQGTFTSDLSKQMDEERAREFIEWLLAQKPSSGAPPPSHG [trigonal agonist of SEQ ID NO: 17]: < 0.1%

Read the next record carefully.
Problem: Name the reported In vitro activity relative to native peptide (%), vs. GIP (cAMP EC50) value associated with the binder {Acetyl(2-(4-imidazolyl))}-[Aib]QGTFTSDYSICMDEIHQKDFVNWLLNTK (bridge 15-19) [trigonal agonist of SEQ ID NO: 49]
Result: 3.3%

Cited source for all entries: patent US20230390362A1
